Tested on: U87MG pLVX-IDH2 R140Q-neo cells
PROCEDURE TEXT: U87MG pLVX-IDH2 R140Q-neo cell based assay, 2-HG in media by LC-MS at 48 hours
ASSAY CONTEXT: Homo sapiens, U-87 MG
REPORTED PROPERTY: IC50

Examples with their reported IC50 follow.
CC(C)Nc1nc(Nc2cncc(F)c2)nc(-c2ncccc2F)n1: < 100 nM
CC(Nc1nc(Nc2ccncc2)nc(-c2ccccc2)n1)C1CC1 (stereo not drawn): 100 to 1000 nM
CC(C)Nc1nc(Nc2ccccc2)nc(-c2ccccc2)n1: < 100 nM

Need IC50 of CC(C)Nc1nc(Nc2ccnc(C#N)c2)nc(-c2cccc(C(F)(F)F)n2)n1 , thanks. < 100 nM

Need IC50 of CC(C)Nc1nc(Nc2ccncc2)nc(-c2ccccc2Cl)n1 , thanks. 100 to 1000 nM

Need IC50 of CC(C)Nc1nc(Nc2ccnc(C(F)(F)F)c2)nc(-c2cccc(N)n2)n1 , thanks. < 100 nM

Need IC50 of CC(C)Nc1nc(Nc2cccc(C(C)(C)O)c2)nc(-c2cccc(C(F)(F)F)n2)n1 , thanks. < 100 nM

Need IC50 of CC(C)Nc1nc(Nc2cc(F)cc(F)c2)nc(-c2cc(Cl)cc(N)n2)n1 , thanks. < 100 nM

Need IC50 of CCOCCNc1nc(Nc2ccncc2)nc(-c2ccccc2)n1 , thanks. 100 to 1000 nM

Need IC50 of CC(C)OC(=O)Nc1nc(Nc2ccccc2)nc(-c2ccccc2)n1 , thanks. 100 to 1000 nM

Need IC50 of Fc1cc(Nc2nc(NCC3CCCO3)nc(-c3cccc(C(F)(F)F)n3)n2)ccn1 (stereo not drawn) , thanks. < 100 nM

* * *

TEST SYSTEM: IDH2 R140Q (Homo sapiens, UniProt P48735, R140Q)
Sequence (P48735 40-452 R140Q): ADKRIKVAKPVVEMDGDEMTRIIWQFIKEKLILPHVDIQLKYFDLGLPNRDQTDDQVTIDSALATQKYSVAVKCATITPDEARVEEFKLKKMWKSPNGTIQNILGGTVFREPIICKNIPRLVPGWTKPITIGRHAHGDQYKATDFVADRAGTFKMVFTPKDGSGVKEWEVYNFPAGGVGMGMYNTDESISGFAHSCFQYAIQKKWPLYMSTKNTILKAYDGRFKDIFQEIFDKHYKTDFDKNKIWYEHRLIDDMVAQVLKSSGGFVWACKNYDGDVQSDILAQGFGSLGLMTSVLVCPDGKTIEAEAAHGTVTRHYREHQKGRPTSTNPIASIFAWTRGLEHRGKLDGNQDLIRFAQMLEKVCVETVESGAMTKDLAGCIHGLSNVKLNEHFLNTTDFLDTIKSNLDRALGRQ
PROCEDURE TEXT: IDH2 R140Q enzymatic assay (cofactor depletion, similar format)
Assay type: biochemical
ASSAY CONTEXT: read-out: Enz R140Q
pIC50: −log10 of the molar value.
Entries annotated with measured pIC50

CC(C)Nc1nc(Nc2ccccc2)nc(-c2cccc(C(F)(F)F)n2)n1: > 7.00
CC(C)(O)CNc1nc(Nc2cncc(F)c2)nc(-c2cccc(C(F)(F)F)n2)n1: 6.00 to 7.00

Need pIC50 of CC(C)Nc1nc(Nc2ccc(C#N)cc2)nc(-c2ccccc2)n1 , thanks. > 7.00

Need pIC50 of CC(C)Nc1nc(Nc2cc(F)cc(F)c2)nc(-c2nc(N)cc(C(F)(F)F)n2)n1 , thanks. 6.00 to 7.00

Need pIC50 of CC(C)Nc1nc(Nc2ccc(F)cc2)nc(-c2ccccc2)n1 , thanks. > 7.00

Need pIC50 of c1ccc(Nc2nc(NC3CCCOC3)nc(-c3ccccc3)n2)cc1 (stereo not drawn) , thanks. > 7.00

Need pIC50 of c1ccc(Nc2nc(NCc3ccccn3)nc(-c3ccccc3)n2)cc1 , thanks. 6.00 to 7.00

Need pIC50 of CC(C)Nc1nc(Nc2cccnc2)nc(-c2ccccc2)n1 , thanks. > 7.00

Need pIC50 of CC(C)(C)Nc1nc(Nc2ccnc(C(C)(F)F)c2)nc(-c2cccc(C(C)(F)F)n2)n1 , thanks. 6.00 to 7.00

* * *

Entries annotated with measured IC50
TEST SYSTEM: IDH2 R172K (Homo sapiens, UniProt P48735, R172K)
PROCEDURE TEXT: IDH2 R172K enzymatic assay (NADPH cofactor depletion, diaphorase/resazurin readout)
ASSAY CONTEXT: read-out: Enz R172K

Examples with their reported IC50 follow.
c1ccc(-c2nc(Nc3ccncc3)nc(NC3CC3)n2)cc1: 1000 to 10000 nM
CC(C)Nc1nc(Nc2ccnc(C(C)(C)O)c2)nc(-c2cccc(Cl)n2)n1: < 100 nM
CC(C)OC(=O)Nc1nc(Nc2ccccc2)nc(-c2ccccc2)n1: 100 to 1000 nM
CC(C)Nc1nc(Nc2ccnc(C(C)(C)C#N)c2)nc(-c2cccc(C(F)(F)F)n2)n1: < 100 nM
CC(C)Nc1nc(Nc2ccccc2)nc(-c2ccnn2C)n1: > 10000 nM

# get_value(readout= IC50, system= IDH2 R172K (Homo sapiens, UniProt P48735, R172K)) for CC(C)Nc1nc(Nc2cncc(F)c2)nc(-c2cccc(N)n2)n1 100 to 1000 nM

# get_value(readout= IC50, system= IDH2 R172K (Homo sapiens, UniProt P48735, R172K)) for CC(C)Nc1nc(Nc2ccnc(C(F)(F)F)c2)nc(-c2nccc(C(F)(F)F)n2)n1 100 to 1000 nM

# get_value(readout= IC50, system= IDH2 R172K (Homo sapiens, UniProt P48735, R172K)) for CCNc1nc(Nc2ccncc2)nc(-c2ccccc2)n1 1000 to 10000 nM

# get_value(readout= IC50, system= IDH2 R172K (Homo sapiens, UniProt P48735, R172K)) for CC(C)(C)OC(=O)Nc1nc(Nc2ccccc2)nc(-c2ccccc2)n1 100 to 1000 nM

# get_value(readout= IC50, system= IDH2 R172K (Homo sapiens, UniProt P48735, R172K)) for O=C(Cc1ccccc1)Nc1nc(Nc2ccccc2)nc(-c2ccccc2)n1 100 to 1000 nM

# get_value(readout= IC50, system= IDH2 R172K (Homo sapiens, UniProt P48735, R172K)) for Fc1cc(Nc2nc(NC3[C@H]4COC[C@@H]34)nc(-c3ccccc3F)n2)ccn1 (stereo partly drawn) 100 to 1000 nM

# get_value(readout= IC50, system= IDH2 R172K (Homo sapiens, UniProt P48735, R172K)) for CC(C)Nc1nc(Nc2cccc(F)c2)nc(-c2ccccc2)n1 < 100 nM

# get_value(readout= IC50, system= IDH2 R172K (Homo sapiens, UniProt P48735, R172K)) for CC(C)(C)Nc1nc(Nc2ccccc2)nc(-c2ccccc2)n1 100 to 1000 nM

# get_value(readout= IC50, system= IDH2 R172K (Homo sapiens, UniProt P48735, R172K)) for CC(C)Nc1nc(Nc2cccc(S(C)(=O)=O)c2)nc(-c2c(F)cccc2F)n1 100 to 1000 nM

# get_value(readout= IC50, system= IDH2 R172K (Homo sapiens, UniProt P48735, R172K)) for CCC(=O)Nc1nc(Nc2ccccc2)nc(-c2ccccc2)n1 100 to 1000 nM

# get_value(readout= IC50, system= IDH2 R172K (Homo sapiens, UniProt P48735, R172K)) for CC(C)Nc1nc(NC2CCOCC2)nc(-c2ccccc2)n1 1000 to 10000 nM

# get_value(readout= IC50, system= IDH2 R172K (Homo sapiens, UniProt P48735, R172K)) for COc1cc(Cl)cc(-c2nc(Nc3ccnc(C(F)(F)F)c3)nc(NC(C)C)n2)c1 100 to 1000 nM

# get_value(readout= IC50, system= IDH2 R172K (Homo sapiens, UniProt P48735, R172K)) for OCCNc1nc(Nc2ccccc2)nc(-c2ccccc2)n1 1000 to 10000 nM

* * *

TEST SYSTEM: IDH2 R140Q (Homo sapiens, UniProt P48735, R140Q)
Sequence (P48735 40-452 R140Q): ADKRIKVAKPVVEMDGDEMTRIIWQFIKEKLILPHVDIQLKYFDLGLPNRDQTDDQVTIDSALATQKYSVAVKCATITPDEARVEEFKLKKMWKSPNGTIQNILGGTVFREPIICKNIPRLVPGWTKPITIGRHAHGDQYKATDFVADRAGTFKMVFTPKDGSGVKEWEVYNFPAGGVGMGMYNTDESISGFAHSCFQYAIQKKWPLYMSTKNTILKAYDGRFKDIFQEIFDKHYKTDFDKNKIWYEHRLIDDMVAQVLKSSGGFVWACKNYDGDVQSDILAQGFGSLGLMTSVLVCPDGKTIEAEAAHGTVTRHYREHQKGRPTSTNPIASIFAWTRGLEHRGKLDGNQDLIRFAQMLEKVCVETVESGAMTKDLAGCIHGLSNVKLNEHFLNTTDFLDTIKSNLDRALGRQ
PROCEDURE TEXT: IDH2 R140Q enzymatic assay (cofactor depletion, similar format)
Type: biochemical
ASSAY CONTEXT: read-out: Enz R140Q
pIC50: −log10 of the molar value.
REPORTED PROPERTY: pIC50

CC(C)Nc1nc(Nc2ccccc2)nc(-c2cccnc2)n1 [Compound 114]: 6.00 to 7.00
Fc1cncc(Nc2nc(NC3C4COCC43)nc(-c3cccc(C(F)(F)F)n3)n2)c1 (stereo not shown) [Compound 411]: 5.00 to 6.00
CC(C)Nc1nc(Nc2ccnc(C(F)(F)F)c2)nc(-c2cc(O)cc(F)c2)n1 [Compound 658]: 6.00 to 7.00

Alright, here's another molecule for you.
Need pIC50 of Fc1cc(F)cc(Nc2nc(NCC3CC3)nc(-c3cccc(C(F)(F)F)n3)n2)c1 [Compound 598] , thanks. 6.00 to 7.00
